- Method: Plasma inosine during 2-hr intravenous inosine infusion in rats (LC/MS/MS)
- Assay type: in vivo, rat
- Measurement Context: male, Sprague-Dawley, plasma, iv; rat, i.v. infusion 300 mg/kg/hour; infusion rate/steady-state concentration
Readout Name: clearance (mL/min/kg)
State the answer as a number, implicitly in mL/min/kg.

## Input Would you mind telling me what clearance value was observed for `OC[C@H]1O[C@@H](n2cnc3c(O)ncnc32)[C@H](O)[C@@H]1O` ?
## Output 218
